Target: Dual specificity tyrosine-phosphorylation-regulated kinase 1A (Homo sapiens)
Test: Assay for Inhibitors of Dual-Specificity Tyrosine-(Y)-Phosphorylation Regulated Kinase 1A (Kinase-Glo assay): round 2 SAR
Conditions: recombinant DYRK1A, Kinase-Glo ATP depletion luminescence; series mostly up to 76.9 µM
Inconclusive results are not listed. Calls of active or inactive are those of the source. Calls follow the shape of the dose curve; as a rule, active = well fitted inhibition curve with a large enough effect; inconclusive = small, poorly fitted or top-dose-only effect; inactive = flat fitted curve, though single readings scatter.
attribute.measured: Potency

Fc1cccc(CNc2ncnc3ccc(-c4cccnc4)cc23)c1 : 26 µM (active)
CC(O)c1ccc(-c2ccc3ncnc(N4CCOCC4)c3c2)o1 (stereo not drawn) : 23.2 µM (active)

[ask] Which measured Potency value corresponds to Fc1cccc(CNc2ncnc3ccc(-c4ccoc4)cc23)c1 ?
[reply] 0.823 µM (active)

====

Biological target: Dual specificity tyrosine-phosphorylation-regulated kinase 1A (Homo sapiens)
Test: Assay for Inhibitors of Dual-Specificity Tyrosine-(Y)-Phosphorylation Regulated Kinase 1A (Kinase-Glo assay): round 2 SAR
Settings: recombinant DYRK1A, Kinase-Glo ATP depletion luminescence; series mostly up to 76.9 µM
Results filed as inconclusive are left out. Activity calls are given as the source filed them. Calls follow the shape of the dose curve; as a rule, active = well fitted inhibition curve with a large enough effect; inconclusive = small, poorly fitted or top-dose-only effect; inactive = flat fitted curve, though single readings scatter.
I would appreciate it if you answered using one of these outcomes: active, inactive

Solved entries:
COc1cccc(Nc2ncc3nc(-c4cn(C)c5ccccc45)c(=O)n(CCC#N)c3n2)c1 : inactive
Cc1csc(CNc2ncnc3ccc(-c4ccc5c(c4)OCO5)cc23)c1 : active
COc1cccc(-c2ccc3ncnc(NCc4cc(C)cs4)c3c2)c1 : active

Note: attention shifts to another entry.
[ask] Give the logged outcome of this assay for the following molecule: CN(Cc1ccco1)c1ncnc2ccc(-c3ccoc3)cc12
[reply] active

Hey, just so you know, these numbers are from PubChem BioAssay AID493206.
